Tested on: MCF-7 cells
test_name: Antiproliferative evaluation, CyQuant assay, MCF-7
Type: cell-based, human
condition_description: exponentially growing cells, 48 h incubation, read-out: IC50, growth inhibition, MCF-7, breast
Task for the reader: assign each of the following molecules its reported IC50.
One number for each entry, in µM.

- CCCCCCCCCCCCCCCCOC[C@@H](COP(=O)([O-])OCC[N+](C)(C)C)NC(=O)OC: 9.1

Go through the items and report each one's IC50.
1. CCCCCCCCCCCCCCCCOC[C@@H](CCP(=O)([O-])OCC[N+](C)(C)C)OC(=O)NC
2. CCCCCCCCCCCCCCCCOC[C@H](CCP(=O)([O-])OCC[N+](C)(C)C)OC(=O)NC

Completion:
1: 4; 2: 10.1
